test system: MS2 coat protein; assay: apparent KD of MS2 coat protein; designed switch direction (-1 OFF switch, 1 ON switch): -1; higher = weaker reporter binding; settings: input ligand: none
resultType: apparent KD of MS2 coat protein (nM)

sequenceString: GCGCCAUCGUGAGAUGGCGUAAUUACAUGAGGAUCACCCAUGUAGGAUAUCGAUUGCUUUGCAGUCGAGAAGGACAUGAUAAUU [JL ENG3 3.80] (Eterna round: R96, puzzle: Exclusion NG 3)
unitsLabel: nM
endpointResult: 33.7

sequenceString: UGAUCUAGGCGAGGAUAUACAUGAGGAUCACCCAUGUAAACGUGACAUGGAAACAUGUCACGUGUGUAGAAGGCGCCUAGAUCU [MOD2 ENG2 3.54 by JL] (Eterna round: R96, puzzle: Exclusion NG 2)
unitsLabel: nM
endpointResult: 13.2

sequenceString: AGGUAGUCAGGAUAUUAGGAGUAGCGGGAUAACGCUACGAGUGAGAAGGGACAUGAGGAUCACCCAUGUUUUGU [JR_Ex4_Sub068] (Eterna round: R97, puzzle: Exclusion 4)
unitsLabel: nM
endpointResult: 23.1

sequenceString: CUUUUGUGAGGAUAUUAGUAGUAAAUGAAUAAAAUUAUUACUGAGAAGGUACAUGAGGAUCACCCAUGUUCCUU [Mat - Exclusion 4 - Eli Mod - D20] (Eterna round: R97, puzzle: Exclusion 4)
unitsLabel: nM
endpointResult: 14.3

sequenceString: CGGCAAAGGUAGGAUAUGCUAGACGAGAGUCUAGCAGAAGGACCUACAUGAGGAUCACCCAUGUGUCCAAGCCG [Mat - Exclusion 6 - Eli Mod - D20] (Eterna round: R97, puzzle: Exclusion 6)
unitsLabel: nM
endpointResult: 97.3

sequenceString: GCGUUCUGAGGAUAUACAUGAGGAUCACCCAUGUUGAGAAAUAAGAAUAAGCCCUUAAGUAGAAGGCAGAGUGC [JR_Ex3_Sub073] (Eterna round: R97, puzzle: Exclusion 3)
unitsLabel: nM
endpointResult: 27.8

sequenceString: GCCGGAGCAGGAUAUCUAAUAUAUCACAUGAGGAUCACCCAUGUCCAGCGAAAGCUGGAGGGAGAAGGGCUCUGGC [Fiskers Ex 5 - 22] (Eterna round: R96, puzzle: Exclusion 5)
unitsLabel: nM
endpointResult: 143

sequenceString: CCAGCAAGUUCAGCUCGUCACAUGAGGAUCACCCAUGUUAAGUAAUCCUUCUCUUCUAGGUAGCGCCGGAGAGAGGG [Eternabot (Original) Solution 16] (Eterna round: R97, puzzle: Sensor, turn-off variant 1)
unitsLabel: nM
endpointResult: 43.3

sequenceString: CUGUACUGAGGAUAUACAUGAGGAUCACCCAUGUGAUUUAGUGCACGCGUACGUGUACGUAGAAGGCAGUACAG [Mat - Exclusion 3 - Eli Mod - D36] (Eterna round: R97, puzzle: Exclusion 3)
unitsLabel: nM
endpointResult: 25.2

sequenceString: GGCGACCUAGGAUAUACAUGAGGAUCACCCAUGUUUAUCUAUUAGAUGAAGACGGGUUGUAGAAGGAGGAUAUU [JL Geriin mod] (Eterna round: R96, puzzle: Exclusion 3)
unitsLabel: nM
endpointResult: 20.2

sequenceString: CGUGUGUAAGGAUAUUUUGCAAGGCGGUGGACCCGCCUAUUAGAGAAGGUACAUGAGGAUCACCCAUGUGAGCC [Eternabot (L2) Solution 74] (Eterna round: R97, puzzle: Exclusion 4)
unitsLabel: nM
endpointResult: 42.3

sequenceString: GCUAGAGCAGGAUAUCGAGAUCCGCACAUGAGGAUCACCCAUGUACGGUCGAAAGACCGACGAGAAGGGCUCUAGC [Omei Ex5 E10] (Eterna round: R97, puzzle: Exclusion 5)
unitsLabel: nM
endpointResult: 186

sequenceString: GGGCUGUCAGGAUAUGGGCCCGGGCCCGAAAGGGUUUGGGCCCAGAAGGGACAUGAGGAUCACCCAUGUGGCCC [-43.8, -42.8 kcal, A 20%, 5b-0] (Eterna round: R97, puzzle: Exclusion 4)
unitsLabel: nM
endpointResult: 34.5

sequenceString: AACUCUGAGAAGGAUAUUCAAUGGGAAACGAUAGAAGAAGGUUUCACAUGAGGAUCACCCAUGUCAAAUAGUGA [EX6 #72] (Eterna round: R97, puzzle: Exclusion 6)
unitsLabel: nM
endpointResult: 173

sequenceString: GCACGGAAUGCAGGAUAUCUGUGCGAUUAGCUCAGAGAAGGGCACAUGAGGAUCACCCAUGUGUAUAAAACACAAAAUCCGUGC [Eli exng1 - 067] (Eterna round: R96, puzzle: Exclusion NG 1)
unitsLabel: nM
endpointResult: 13.8

sequenceString: CAGUACUGAGGAUAUACAUGAGGAUCACCCAUGUGUUCCAGCUAGGAAACUAGCACUUGUAGAAGGCAGUACUG [Ex3: 830] (Eterna round: R96, puzzle: Exclusion 3)
unitsLabel: nM
endpointResult: 26.7

sequenceString: GGGCUGCGACACAGCCAAACAAAACAUGAGGAUCACCCAUGUCAGGAUAUACCGAUGCAGCAUCUGUAGAAGGGACAGAUCCAA [Lalaon] (Eterna round: R96, puzzle: Exclusion NG 3)
unitsLabel: nM
endpointResult: 79.7

sequenceString: AGCAUGUGAGGAUAUGUACCUGAGUGCUUUGCGCUCAGGAAACAGAAGGCACAUGAGGAUCACCCAUGUGAAAA [jl-ex4-4.45 ViennaUCT mod] (Eterna round: R97, puzzle: Exclusion 4)
unitsLabel: nM
endpointResult: 281

sequenceString: GGUGCCCGACAAGGAUAUAAGAUACAGAAAACCUUAGAAGGUGUCACAUGAGGAUCACCCAUGUGGUCCGGCACCAAUAACUCC [Inedraor] (Eterna round: R96, puzzle: Exclusion NG 1)
unitsLabel: nM
endpointResult: 41.9
